system: Staphylococcus aureus; assay: Antibacterial activity against Staphylococcus aureus ATCC25923 assessed as inhibition of bacterial growth incubated for 24 hrs by broth microdilution method; format: functional
With a cut-off of 8 µg/mL, any MIC strictly below it is called true (1); any MIC meeting it or above is called false (0).

stdin: hey, is MIC for O=C(Nc1ccc(C2NCCc3c2[nH]c2ccccc32)cc1)c1cccc(F)c1 (centres undefined) lower than 8 µg/mL or not?
stdout: false (0)

stdin: Check if MIC falls below 8 µg/mL for O=C(Nc1ccc(C2NCCc3c2[nH]c2ccccc32)cc1)c1ccc(F)c(C(F)(F)F)c1 (centres undefined) .
stdout: true (1)

stdin: # strict comparison: is reported MIC < 8 µg/mL? input = CN1CCc2c([nH]c3ccccc23)C1c1ccc(NC(=O)c2cc(C(F)(F)F)cc(C(F)(F)F)c2)cc1 (centres undefined)
stdout: false (0)

stdin: Problem: For the compound CN1CCc2c([nH]c3ccccc23)C1c1ccc(NC(=O)c2cccc(C(F)(F)F)c2)cc1 (centres undefined) , is MIC under 8 µg/mL?
stdout: false (0)

stdin: I'd appreciate it if you could check whether CN1CCc2c([nH]c3ccccc23)C1c1ccc(NC(=O)c2ccccc2)cc1 (centres undefined) has MIC smaller than 8 µg/mL.
stdout: false (0)

stdin: Problem: For the compound CO[C@H]1/C=C/O[C@@]2(C)Oc3c(C)c(O)c4c(O)c(c(/C=N/N5CCN(C)CC5)c(O)c4c3C2=O)NC(=O)/C(C)=C\C=C\[C@H](C)[C@H](O)[C@@H](C)[C@@H](O)[C@@H](C)[C@H](OC(C)=O)[C@@H]1C , is MIC under 8 µg/mL?
stdout: true (1)

stdin: Strictly below 8 µg/mL in MIC? CN1CCc2c([nH]c3ccccc23)C1c1ccc(NC(=O)c2ccc([N+](=O)[O-])cc2)cc1 (centres undefined)
stdout: false (0)

stdin: Please state whether MIC is below 8 µg/mL for O=C(Nc1ccc(C2NCCc3c2[nH]c2ccccc32)cc1)c1cc(C(F)(F)F)cc(C(F)(F)F)c1 (centres undefined)
stdout: false (0)

stdin: In plain terms, does CN1CCc2c([nH]c3ccccc23)C1c1ccc(NC(=O)c2cccc([N+](=O)[O-])c2)cc1 (centres undefined) come in under 8 µg/mL for MIC?
stdout: false (0)

stdin: Criterion: MIC strictly below 8 µg/mL. Is it met by O=C(O)c1cn(C2CC2)c2cc(N3CCNCC3)c(F)cc2c1=O ?
stdout: true (1)

stdin: Hello, is MIC of the following compound strictly smaller than 8 µg/mL? O=C(Nc1ccc(C2NCCc3c2[nH]c2ccccc32)cc1)c1ccc(F)cc1 (centres undefined)
stdout: true (1)

stdin: Consider O=C(Nc1ccc(C2NCCc3c2[nH]c2ccccc32)cc1)c1ccc(C(F)(F)F)cc1 (centres undefined) . Does its MIC lie strictly below 8 µg/mL?
stdout: true (1)

stdin: MIC under 8 µg/mL? Item: CN1CCc2c([nH]c3ccccc23)C1c1ccc(NC(=O)c2ccc(F)cc2)cc1 (centres undefined)
stdout: true (1)

stdin: A record lists Cc1ccccc1C(=O)Nc1ccc(C2c3[nH]c4ccccc4c3CCN2C)cc1 (centres undefined) . Is its MIC below 8 µg/mL?
stdout: false (0)

stdin: Does this compound meet the criterion MIC < 8 µg/mL? O=C(Nc1ccc(C2NCCc3c2[nH]c2ccccc32)cc1)c1ccccc1F (centres undefined)
stdout: false (0)

stdin: Consider COC(=O)c1ccc(C(=O)Nc2ccc(C3NCCc4c3[nH]c3ccccc43)cc2)cc1 (centres undefined) . Does its MIC lie strictly below 8 µg/mL?
stdout: false (0)

stdin: Threshold test, MIC < 8 µg/mL: CN1CCc2c([nH]c3ccccc23)C1c1ccc(NC(=O)c2cccc(F)c2)cc1 (centres undefined)
stdout: false (0)

stdin: Would you kindly verify if MIC of O=C(Nc1ccc(C2NCCc3c2[nH]c2ccccc32)cc1)c1ccccc1 (centres undefined) is strictly less than 8 µg/mL?
stdout: false (0)

stdin: Here's an entry: CN1CCc2c([nH]c3ccccc23)C1c1ccc(NC(=O)c2ccc(F)c(C(F)(F)F)c2)cc1 (centres undefined) . Is its MIC below 8 µg/mL?
stdout: false (0)

stdin: Problem: For the compound Cc1cccc(C(=O)Nc2ccc(C3c4[nH]c5ccccc5c4CCN3C)cc2)c1 (centres undefined) , is MIC under 8 µg/mL?
stdout: false (0)

stdin: Strictly below 8 µg/mL: is that where MIC of CN1CCc2c([nH]c3ccccc23)C1c1ccc(NC(=O)c2cccc(Cl)c2)cc1 (centres undefined) sits?
stdout: false (0)

stdin: Dear colleague, could you confirm whether MIC of Cc1ccccc1C(=O)Nc1ccc(C2NCCc3c2[nH]c2ccccc32)cc1 (centres undefined) falls below 8 µg/mL? Thanks.
stdout: false (0)

stdin: Say whether its MIC is strictly beneath 8 µg/mL. Entry: Cc1cccc(C(=O)Nc2ccc(C3NCCc4c3[nH]c3ccccc43)cc2)c1 (centres undefined)
stdout: false (0)

stdin: Lab log: compare recorded MIC with 8 µg/mL; is it strictly lower for CN1CCc2c([nH]c3ccccc23)C1c1ccc(NC(=O)c2ccc(Br)cc2)cc1 (centres undefined) ?
stdout: false (0)

All values here come from ChEMBL document CHEMBL5576067.
